Entries annotated with measured Competition at 1 μM (%)
Target: PD brain-derived a-syn aggregates (Homo sapiens)
Construct: from tissue; host or cells: human PD donor brain, sarkosyl-insoluble 100,000 x g pellet
Assay: Micro-radiobinding competition assay against Example-1 [^3H-1] (Table 8)
Assay type: binding
Conditions: 1 μM non-radiolabelled example compound vs Example-1 [^3H-1] ligand; human PD brain-derived a-syn aggregates
observable: Competition at 1 μM (%)

* O=C1c2cn(-c3ccc(N4CC[C@@H](F)C4)nc3)nc2CN1c1ccc(O)cc1 | 96%
* O=C1c2cn(-c3ccc(N4CC[C@@H](F)C4)cn3)nc2CN1c1cccnc1 | 92%
* O=C1c2cn(-c3ccc(N4CC[C@H](F)C4)nc3)nc2CN1c1cncnc1 | 70%
* COc1cc(N2Cc3nn(-c4ccc(N5CC[C@H](F)C5)nc4)cc3C2=O)ccn1 | 100%
* N#Cc1ccc(N2Cc3nn(-c4ccc(N5CC[C@H](F)C5)nc4)cc3C2=O)cc1N | 84%
* O=C1c2cn(-c3ccc(N4CC[C@H](F)C4)nc3)nc2CN1c1ccc(O)nc1 | 75%
